B1: Cytochrome c-551, P00099 (parent)
chain: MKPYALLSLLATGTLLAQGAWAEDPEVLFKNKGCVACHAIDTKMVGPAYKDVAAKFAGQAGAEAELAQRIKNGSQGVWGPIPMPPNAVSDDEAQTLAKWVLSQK

Variants of: B1
Conditions: Pseudomonas aeruginosa (strain ATCC 15692 / DSM 22644 / CIP 104116 / JCM 14847 / LMG 12228 / 1C / PRS 101 / PAO1); pH 3.6; 62.6 °C; Thermal; DSC; sodium acetate 50 mM; reversible: yes; structure 451C; whole UniProt chain shown
experimental.endpoint: unfolding enthalpy (calorimetric)

                             sequence_chain          value
0  MKPYALLSLLATGTLLAQGAWAEDPEVLAKNKGCMACHAIDTKMVGPAYKDVAAKYAGQAGAEAYLAQRIKNGSQGVWGPIPMPPNAVSDDEAQTLAKWVLSQK  64.8 kcal/mol
1  MKPYALLSLLATGTLLAQGAWAEDPEVLAKNKGCMACHAIDTKMVGPAYKDVAAKFAGQAGAEAELAQRIKNGSQGVWGPIPMPPNAVSDDEAQTLAKWVLSQK  64.2 kcal/mol
2  MKPYALLSLLATGTLLAQGAWAEDPEVLFKNKGCVACHAIDTKMVGPAYKDVAAKYAGQAGAEAYLAQRIKNGSQGVWGPIPMPPNAVSDDEAQTLAKWVLSQK  65.5 kcal/mol
3  MKPYALLSLLATGTLLAQGAWAEDPEVLFKNKGCVACHAIDTKMVGPAYKDVAAKFAGQAGAEAELAQRIKNGSQGVWGPIPMPPNAVSDDEAQTLAKWILSQK  65.6 kcal/mol
4  MKPYALLSLLATGTLLAQGAWAEDPEVLAKNKGCMACHAIDTKMVGPAYKDVAAKFAGQAGAEAELAQRIKNGSQGVWGPIPMPPNAVSDDEAQTLAKWILSQK  64.4 kcal/mol
5  MKPYALLSLLATGTLLAQGAWAEDPEVLAKNKGCMACHAIDTKMVGPAYKDVAAKYAGQAGAEAYLAQRIKNGSQGVWGPIPMPPNAVSDDEAQTLAKWILSQK  71.1 kcal/mol
6  MKPYALLSLLATGTLLAQGAWAEDPEVLFKNKGCVACHAIDTKMVGPAYKDVAAKYAGQAGAEAYLAQRIKNGSQGVWGPIPMPPNAVSDDEAQTLAKWILSQK    67 kcal/mol
